- Tested on: 13 human glioma cell lines and three patient-derived glioblastoma stem cell lines
- method-notes: Cell viability / growth inhibition, whole panel
- Type: cell-based
- recorded-conditions: read-out: IC50 values, range over all cell lines tested
measured-property: IC50

// query Consider the molecule CN[C@H]1CN(c2ccc3c(=O)c(C(=O)O)cn(-c4nccs4)c3n2)C[C@@H]1OC and give its recorded IC50.
// result 12.8 to 260 nM

###

- System: T98G glioma cell line
- method-notes: Inhibition of proliferation (cell viability)
- Assay type: cell-based
- recorded-conditions: Homo sapiens
measured-property: IC50 (nM)
Answer format: numeric, nM implied, no suffix.

// query Consider the compound CN[C@H]1CN(c2ccc3c(=O)c(C(=O)O)cn(-c4nccs4)c3n2)C[C@@H]1OC [vosaroxin] and give its recorded IC50.
// result 64.5

###

- System: BT12M patient-derived glioblastoma stem cell line
- method-notes: Inhibition of proliferation (cell viability)
- Assay type: cell-based
- recorded-conditions: Homo sapiens
- Protocol: Thirteen human glioma cell lines (U251, U373, SNB19, U118, U138, U87MG, A172, LN229, LN19, SW1783, T98G, SF-268, and D54) were cultured at 37°C in 5% CO2 and were maintained in Dulbecco’s modified Eagle medium (DMEM) containing 10% (v/v) fetal bovine serum, 4 mM glutamine, 100 IU/mL penicillin, 100 μg/mL streptomycin, and 1% nonessential amino acid (Invitrogen Life Technologies, Inc., Rockville, MD, USA). […]
measured-property: IC50 (nM)
Answer format: numeric, nM implied, no suffix.

// query Consider the compound CN[C@H]1CN(c2ccc3c(=O)c(C(=O)O)cn(-c4nccs4)c3n2)C[C@@H]1OC [vosaroxin] and give its recorded IC50.
// result 44.3

###

- System: U251 glioma cell line
- method-notes: Inhibition of proliferation (cell viability)
- Type: cell-based
- recorded-conditions: Homo sapiens, U-251
measured-property: IC50 (nM)
Answer format: numeric, nM implied, no suffix.

// query Consider the compound CN[C@H]1CN(c2ccc3c(=O)c(C(=O)O)cn(-c4nccs4)c3n2)C[C@@H]1OC and give its recorded IC50.
// result 18.6

###

- System: LN229 glioma cell line
- method-notes: Inhibition of proliferation (cell viability)
- Format: cell-based
- recorded-conditions: Homo sapiens, LN-229
measured-property: IC50 (nM)
Answer format: numeric, nM implied, no suffix.

// query Consider the compound CN[C@H]1CN(c2ccc3c(=O)c(C(=O)O)cn(-c4nccs4)c3n2)C[C@@H]1OC and give its recorded IC50.
// result 12.8

###

- System: SNB19 glioma cell line
- method-notes: Inhibition of proliferation (cell viability)
- Assay type: cell-based
- recorded-conditions: Homo sapiens, SNB-19
measured-property: pIC50
# pIC50 = -log10(concentration in molar units)

// query Consider the molecule CN[C@H]1CN(c2ccc3c(=O)c(C(=O)O)cn(-c4nccs4)c3n2)C[C@@H]1OC and give its recorded pIC50.
// result 7.45
